Data credit: paper PMC7826789

Test system: AAK1
Conditions: Compound Concentration (nM):1000;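 also: KINOMEscan scanMAX binding as percent activity remaining versus control; lower means stronger binding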
Classify: yes when Percent Control is strictly less than 90%; no when Percent Control is not.

Molecule | Label Class
NS(=O)(=O)c1ccc(N/N=C2\C(=O)Nc3ccc(-c4cnco4)cc32)cc1 | yes
COc1cc2ncnc(Nc3ccc4c(cnn4Cc4ccccc4)c3)c2cc1OC.Cl [GW282449A] | no
CCc1ccc(Oc2nccc(-c3c(-c4ccc(F)cc4)ncn3C3CCNCC3)n2)cc1 | no
NS(=O)(=O)c1ccc(N/N=C2\C(=O)Nc3ccc(Cl)cc32)cc1 [GW280670X] | no
COc1ccc2cc(-c3c(-c4ccncc4)nc(-c4ccc(S(C)(=O)=O)cc4C)n3C)ccc2c1 | yes
COc1ccc(COc2ccc(Cc3cnc(N)nc3N)cc2OC)cc1 [GW632580X] | no
CCS(=O)(=O)c1ccc(OC)c(Nc2ncc(-c3cccc(F)c3)o2)c1 [GW621970X] | no
C[C@@H](Oc1cc(-n2cnc3ccc(OC4CCN(C)CC4)cc32)sc1C(N)=O)c1ccccc1Cl [GSK579289A] | yes

----------
Test system: CSNK1A1L
Details: Compound Concentration (nM):1000
Examples of molecules with documented Percent Control follow.

Molecule | Units Label | Percent Control
Cl.c1ccc(Cc2nc3ccc(Nc4ncnc5ccccc45)cc3[nH]2)cc1 [GR269666A] | % | 100
COc1cc(N2CCN(C(C)C)CC2)ccc1Nc1nc(Nc2ccc(F)cc2C(=O)NC[C@@H](O)CO)c2cc[nH]c2n1 [GSK1392956A] | % | 68
CCc1ccc(Oc2nccc(-c3c(-c4ccc(F)cc4)ncn3C3CCNCC3)n2)cc1 | % | 66
CC(C)COC(=O)c1ccc2c(c1)/C(=C/Nc1ccc(S(N)(=O)=O)cc1)C(=O)N2 [GW416981X] | % | 50
COc1cc2ncn(-c3cc(O[C@H](C)c4ccccc4Cl)c(C(N)=O)s3)c2cc1OC [GSK237701A] | % | 60
C/C(Nc1ccc(S(N)(=O)=O)cc1)=C1/C(=O)Nc2ccccc21 [GW335962X] | % | 97
COc1cccc(-c2c[nH]c3c(N/N=C/c4ccncc4)ncnc23)c1 [GW814408X] | % | 100
CCS(=O)(=O)c1ccc(OC)c(Nc2ncc(-c3cccc(F)c3)o2)c1 [GW621970X] | % | 100

----------
System: FGFR3(G697C)
Conditions: Compound Concentration (nM):1000
Outcome Measure: Percent Control (%)

Compound | Measurement Target | Units Label | Test Result
CC(C)COC(=O)c1ccc2c(c1)/C(=C/Nc1ccc(S(N)(=O)=O)cc1)C(=O)N2 [GW416981X] | FGFR3(G697C) | % | 100
NS(=O)(=O)c1ccc(Nc2ncc(-c3ccccc3)o2)cc1 [GW572399X] | FGFR3(G697C) | % | 100
O=C1Nc2ccc(C(=O)c3ccco3)cc2C1=Cc1cc(Cl)c(O)c(Cl)c1 [GW406108X] | FGFR3(G697C) | % | 100
CN1CCN(C(=O)c2ccc(NC(=O)Nc3ccc(N(C)c4ccnc(Nc5ccc(CS(C)(=O)=O)cc5)n4)cc3)cc2)CC1.Cl [GW830263A] | FGFR3(G697C) | % | 100
COc1ccc2[nH]c3c4[nH]c5ccc(OC)cc5c4c4c(c3c2c1)C(=O)NC4=O [GW296115X] | FGFR3(G697C) | % | 100
